Molecular target: TIGIT/CD155 complex (Homo sapiens)
Construct: purchased 63ADK000CB07PEG
Sequence (Q495A1 22-141 limits assumed): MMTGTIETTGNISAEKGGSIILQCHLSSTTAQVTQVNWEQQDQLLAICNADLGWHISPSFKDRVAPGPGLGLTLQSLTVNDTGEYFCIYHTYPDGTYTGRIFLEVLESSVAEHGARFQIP
Assay: HTRF TIGIT/CD155 binding assay (blocking of TIGIT/CD155 complex)
Conditions: derivatives with side chains R1, R2, R3 modified
measuredMetric: TIGIT binding effects compared with compound 1

COc1ccc(C(NC(=O)[C@H](Cc2csc3ccccc23)NC(=O)[C@@H](C)c2ccc3cc(OC)ccc3c2)c2ccc(OCC(=O)O)cc2)c(OC)c1 (stereo partly drawn) | improved
COc1ccc(C(NC(=O)[C@H](Cc2cccc(C#N)c2)NC(=O)[C@@H](C)c2ccc3cc(OC)ccc3c2)c2ccc(OCC(=O)O)cc2)c(OC)c1 (stereo partly drawn) | improved
COc1ccc2cc([C@H](C)C(=O)N[C@@H](Cc3csc4ccccc34)C(=O)NCc3ccc(OCC(=O)O)cc3)ccc2c1 | improved

Every entry's value here was drawn from paper PMC9360614.
